Target: T1, Pex13, P80667
T1 sequence (P80667 295-386, looked up): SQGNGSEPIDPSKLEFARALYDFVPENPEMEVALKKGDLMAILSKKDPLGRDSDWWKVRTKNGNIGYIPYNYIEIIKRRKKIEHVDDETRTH
Assay: SPOT array
Details: median of control spots 1341
measured.metric: SPOT intensity

[
  {
    "binder": "KRKRRLPVSEDTNTK",
    "SPOT intensity": 0
  }
]

Provide SPOT intensity value for the following binder: `HGKRRAPLLLAKLDV`
5

Please look at this binder and report its SPOT intensity: `SRQAIPPPVPNRPGG`
133

Name the recorded SPOT intensity of the item `ISPPASPPPEFDFSK` in your answer.
0

Identify measured SPOT intensity associated with `MTKTPETSPPKRPMG`
8
